assay_explanation: Bioavailability experiment: DHM concentration in plasma after gavage, LC-MS/MS
Format: in vivo
assay_setup: rat, po, male SD rats, DHM 100 mg/kg
property: AUC(0-t) (ng·h/mL)
Give just the numeric value; ng·h/mL need not be written.

Return the recorded AUC(0-t) value; entry: O=C1c2c(O)cc(O)cc2O[C@H](c2cc(O)c(O)c(O)c2)[C@H]1O [DHM, dihydromyricetin] 172

----------
assay_explanation: Bioavailability experiment: DHM concentration in plasma after gavage, LC-MS/MS
Assay type: in vivo
assay_setup: rat, po, male SD rats, DHM 100 mg/kg
Protocol: Experimental subject grouping: 24 male SD rats, weighing between 200-220 g, were randomly divided into four groups. […] The concentration of DHM in plasma was determined at different time points to evaluate the effect of the composition on the bioavailability of DHM.
property: Tmax (min)
Expressed in min, but write only the number.

Output measured Tmax for this item: O=C1c2c(O)cc(O)cc2O[C@H](c2cc(O)c(O)c(O)c2)[C@H]1O [DHM, dihydromyricetin] 49.8
